target: B2-receptors in h-TM cells (Homo sapiens); construct: B2-receptor proteins in h-TM, h-CM and h-NPE cells; endogenous in cells; host or cells: human trabecular meshwork (h-TM), human ciliary muscle (h-CM) and human non-pigmented ciliary epithelial (h-NPE) cells; test: [Ca2+]i mobilization (FLIPR) in h-TM cells, agonist mode; format: cell-based; details: HTM; h-TM cells; mean ± SEM; read-out: Intrinsic Activity (Emax, % max relative to BK)
Sequence (P30411 whole entry): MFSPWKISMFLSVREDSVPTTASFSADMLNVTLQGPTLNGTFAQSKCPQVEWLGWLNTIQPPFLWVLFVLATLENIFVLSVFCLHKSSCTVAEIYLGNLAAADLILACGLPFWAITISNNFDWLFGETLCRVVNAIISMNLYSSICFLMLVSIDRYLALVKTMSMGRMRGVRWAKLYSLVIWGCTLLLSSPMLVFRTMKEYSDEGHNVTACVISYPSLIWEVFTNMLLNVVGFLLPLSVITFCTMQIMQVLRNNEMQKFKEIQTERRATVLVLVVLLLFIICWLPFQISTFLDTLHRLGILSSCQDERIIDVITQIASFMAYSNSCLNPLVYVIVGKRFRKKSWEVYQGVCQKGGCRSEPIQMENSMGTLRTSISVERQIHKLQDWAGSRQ
Item-by-item account of Emax
Numbers only; they are read as %.

Field: example entries. Status: answers known.
Sample Smiles	Unit Descriptor	Result Value
Cc1cc(OCc2ccccn2)c2cccc(OCc3c(Cl)ccc(N(C)C(=O)CNC(=O)/C=C/c4ccc(/C=C/c5ccncc5)nc4)c3Cl)c2n1	%	93
CNC(=O)c1ccc(/C=C/C(=O)NCC(=O)N(C)c2ccc(Cl)c(COc3cccc4c(OCc5ccccn5)cc(C)nc34)c2Cl)cc1	%	86
CSCC[C@H](N)C(=O)N[C@@H](CCCCN)C(=O)N[C@@H](CCCNC(=N)N)C(=O)N1CCC[C@H]1C(=O)N1CCC[C@H]1C(=O)NCC(=O)N[C@@H](Cc1ccccc1)C(=O)N[C@@H](CO)C(=O)N1CCC[C@H]1C(=O)N[C@@H](Cc1ccccc1)C(=O)N[C@@H](CCCNC(=N)N)C(=O)O	%	111
N=C(N)NCCC[C@H](NC(=O)[C@H](Cc1ccccc1)NC(=O)[C@@H]1CCCN1C(=O)[C@H](CO)NC(=O)[C@H](Cc1ccccc1)NC(=O)CNC(=O)[C@@H]1CCCN1C(=O)[C@@H]1CCCN1C(=O)[C@H](CCCNC(=N)N)NC(=O)[C@@H](N)CCCCN)C(=O)O	%	115

Consider the additional compound presented here.
**Q:** // fetch Emax given entry N=C(N)NCCC[C@H](N)C(=O)N1CCC[C@H]1C(=O)N1CCC[C@H]1C(=O)NCC(=O)N[C@@H](Cc1ccccc1)C(=O)N[C@@H](CO)C(=O)N1CCC[C@H]1C(=O)N[C@@H](Cc1ccccc1)C(=O)O
**A:** 112

----------
assay: Ocular pharmacokinetic study in rabbit eyes, single topical ocular dose; format: in vivo; settings: aqueous humor, single 300 μg topical ocular dose, 3 hr post-dosing, read-out: Aqueous Humor Concentration
Value Type: concentration at 3 hr (nM)
Numbers only; they are read as nM.

**Q:** // fetch concentration at 3 hr given entry CNC(=O)c1ccc(/C=C/C(=O)NCC(=O)N(C)c2ccc(Cl)c(COc3cccc4c(OCc5ccccn5)cc(C)nc34)c2Cl)cc1 [FR-190997]
**A:** 139

----------
assay: Ocular pharmacokinetic study in rabbit eyes, single topical ocular dose; assay type: in vivo; conditions: aqueous humor, single 300 μg topical ocular dose, 1.0 hr post-dosing, read-out: Aqueous Humor Concentration
Value Type: concentration at 1 hr
A complete answer gives the number and then names the unit.

**Q:** // fetch concentration at 1 hr given entry CNC(=O)c1ccc(/C=C/C(=O)NCC(=O)N(C)c2ccc(Cl)c(COc3cccc4c(OCc5ccccn5)cc(C)nc34)c2Cl)cc1
**A:** 16 nM

----------
experiment: Ocular pharmacokinetic study in rabbit eyes, single topical ocular dose; assay type: in vivo; settings: aqueous humor, single 300 μg topical ocular dose, 1.5 hr post-dosing
Value Type: concentration at 1.5 hr (nM)
Numbers only; they are read as nM.

**Q:** // fetch concentration at 1.5 hr given entry CNC(=O)c1ccc(/C=C/C(=O)NCC(=O)N(C)c2ccc(Cl)c(COc3cccc4c(OCc5ccccn5)cc(C)nc34)c2Cl)cc1
**A:** 3.1
